Reference source: patent US20070129537A1

target: T1, natural proline-rich peptide ligand C3G, PPPALPPKKR (peptide SEQ ID NO: 11); assay: fluorescence-based titration (excitation 300 nm, emission 348 nm), 25 C, 0.5 uM protein, 1:1 complex assumed
T1 peptide: PPPALPPKKR-NH2
Ends that are not written are not given here.
measured-parameter: Kd (nM)
Answers are plain numbers, in nM.

Value of Kd reported for the binder synthetic c-Crk N-terminal SH3 domain obtained by native chemical ligation of peptide thioester SEQ ID NO: 9 and peptide SEQ ID NO: 10 (other, N-terminal acetyl (Ac-AEYV...); C-terminal amide implied (peptide SEQ ID NO: 10 made on Rink-amide resin); Cys introduced at the N-terminus of SEQ ID NO: 10 (ligation site); the -SEt thioester of SEQ ID NO: 9 is lost on ligation, used at 0.5 uM in 20 mM sodium phosphate, 100 mM NaCl, pH 7.2; ESMS found 6894.1 Da (calculated 6891.7 Da); also called ligated SH3 domain; synthetic SH3 domain) AEYVRALFDFNGNDEEDLPFKKGCILRIRDKPEEQWWNAEDSEGKRGMIPVPYVEKYG is 900
